# tested.on: rat P2X4 (Rattus norvegicus, UniProt P51577)
# Sequence (P51577 whole entry): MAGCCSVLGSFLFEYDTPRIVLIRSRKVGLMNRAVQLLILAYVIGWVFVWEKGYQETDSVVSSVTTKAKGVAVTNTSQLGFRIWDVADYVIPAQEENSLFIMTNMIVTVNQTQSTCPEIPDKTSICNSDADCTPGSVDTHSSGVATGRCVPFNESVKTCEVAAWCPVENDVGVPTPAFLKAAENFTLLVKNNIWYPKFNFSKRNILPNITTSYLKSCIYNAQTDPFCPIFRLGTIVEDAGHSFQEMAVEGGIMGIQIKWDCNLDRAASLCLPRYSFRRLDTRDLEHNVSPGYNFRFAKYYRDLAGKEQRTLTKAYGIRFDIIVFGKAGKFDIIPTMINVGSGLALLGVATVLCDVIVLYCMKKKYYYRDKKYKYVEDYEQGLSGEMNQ
# assay.overview: FLIPR Method for Rat P2X4 1321N1 Astrocytoma Cells
# study.conditions: 1321N1 stably expressing rat P2X4; agonist MgATP 5 μM (EC80)

- molecule.smiles: "CC(=O)N(c1ccc(F)c(C#N)c1)c1cc(NC(=O)Cc2ccccc2Cl)ccn1"
  tested.on: "rat P2X4 (Rattus norvegicus, UniProt P51577)"
  IC50: "0.374 µM"
- molecule.smiles: "CC(=O)N(c1cccc(F)c1)c1cc(NC(=O)Cc2ccc(F)cc2Cl)ccn1"
  tested.on: "rat P2X4 (Rattus norvegicus, UniProt P51577)"
  IC50: "0.289 µM"
- molecule.smiles: "COc1ccc(CC(=O)Nc2ccnc(N(C(C)=O)c3ccc(F)c(F)c3)c2)c(Cl)c1"
  tested.on: "rat P2X4 (Rattus norvegicus, UniProt P51577)"
  IC50: "0.714 µM"
- molecule.smiles: "CC(=O)N(c1ccc(F)c(Cl)c1)c1cc(NC(=O)Cc2c(Cl)cccc2Cl)ccn1"
  tested.on: "rat P2X4 (Rattus norvegicus, UniProt P51577)"
  IC50: "0.143 µM"
- molecule.smiles: "CC(=O)N(c1cccc(F)c1)c1cc(NC(=O)Cc2ccccc2Cl)ccn1"
  tested.on: "rat P2X4 (Rattus norvegicus, UniProt P51577)"
  IC50: "0.447 µM"
- molecule.smiles: "CC(=O)N(c1ccc(F)c(F)c1)c1cc(NC(=O)Cc2c(Cl)cc(C)cc2Cl)ccn1"
  tested.on: "rat P2X4 (Rattus norvegicus, UniProt P51577)"
  IC50: "0.0991 µM"
- molecule.smiles: "CC(=O)N(c1ccc(C)cc1)c1cc(NC(=O)Cc2cccc(F)c2Cl)ccn1"
  tested.on: "rat P2X4 (Rattus norvegicus, UniProt P51577)"
  IC50: "1.18 µM"
- molecule.smiles: "COc1ccc(N(C(C)=O)c2cc(NC(=O)Cc3c(Cl)cccc3Cl)ccn2)cc1F"
  tested.on: "rat P2X4 (Rattus norvegicus, UniProt P51577)"
  IC50: "0.338 µM"
